Target system: Adrenergic receptor alpha-1 (Rattus norvegicus, UniProt P15823+P23944+P43140)
Sequence (P15823 whole entry): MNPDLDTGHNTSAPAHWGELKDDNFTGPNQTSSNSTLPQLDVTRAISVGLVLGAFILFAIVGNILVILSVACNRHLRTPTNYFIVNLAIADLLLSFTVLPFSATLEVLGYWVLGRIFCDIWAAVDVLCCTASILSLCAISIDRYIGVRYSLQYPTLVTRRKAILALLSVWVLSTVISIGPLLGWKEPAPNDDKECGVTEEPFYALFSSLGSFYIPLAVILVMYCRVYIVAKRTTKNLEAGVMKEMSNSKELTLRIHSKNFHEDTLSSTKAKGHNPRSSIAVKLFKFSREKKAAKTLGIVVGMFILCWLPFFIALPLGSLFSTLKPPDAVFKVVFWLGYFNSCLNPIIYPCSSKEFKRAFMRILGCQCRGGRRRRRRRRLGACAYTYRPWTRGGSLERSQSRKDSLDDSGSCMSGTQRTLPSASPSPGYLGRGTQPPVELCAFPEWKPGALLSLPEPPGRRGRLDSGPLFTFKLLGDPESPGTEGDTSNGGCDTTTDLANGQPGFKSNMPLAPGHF
Sequence (P23944 whole entry): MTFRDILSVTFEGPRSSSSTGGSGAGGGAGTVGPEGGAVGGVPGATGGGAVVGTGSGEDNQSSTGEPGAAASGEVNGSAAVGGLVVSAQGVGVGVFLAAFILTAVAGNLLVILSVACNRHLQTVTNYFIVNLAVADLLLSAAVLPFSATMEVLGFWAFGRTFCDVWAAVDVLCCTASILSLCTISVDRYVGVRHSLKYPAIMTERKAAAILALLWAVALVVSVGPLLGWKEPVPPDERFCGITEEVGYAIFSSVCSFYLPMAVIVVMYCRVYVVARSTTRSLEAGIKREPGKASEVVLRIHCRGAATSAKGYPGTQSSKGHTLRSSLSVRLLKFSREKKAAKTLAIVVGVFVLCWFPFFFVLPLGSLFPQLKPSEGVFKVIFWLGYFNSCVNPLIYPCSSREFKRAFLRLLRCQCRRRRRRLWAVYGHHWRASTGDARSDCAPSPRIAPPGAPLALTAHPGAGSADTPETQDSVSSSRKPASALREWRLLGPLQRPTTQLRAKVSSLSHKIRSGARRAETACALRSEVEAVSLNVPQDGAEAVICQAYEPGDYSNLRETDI
Sequence (P43140 whole entry): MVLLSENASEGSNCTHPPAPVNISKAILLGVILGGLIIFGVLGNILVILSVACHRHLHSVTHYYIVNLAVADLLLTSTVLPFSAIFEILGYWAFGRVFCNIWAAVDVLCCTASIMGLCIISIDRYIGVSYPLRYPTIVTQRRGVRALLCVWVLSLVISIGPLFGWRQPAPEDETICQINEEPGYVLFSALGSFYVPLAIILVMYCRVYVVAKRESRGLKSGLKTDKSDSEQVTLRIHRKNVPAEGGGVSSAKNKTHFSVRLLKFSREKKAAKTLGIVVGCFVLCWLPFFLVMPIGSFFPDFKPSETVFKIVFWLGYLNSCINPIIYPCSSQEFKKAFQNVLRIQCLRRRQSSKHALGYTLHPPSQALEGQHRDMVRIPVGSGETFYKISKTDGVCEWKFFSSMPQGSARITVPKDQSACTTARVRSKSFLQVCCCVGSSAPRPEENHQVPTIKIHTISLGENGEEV
Protocol details: Binding affinity against alpha-1 adrenergic receptor in rat using [3H]prazosin as radioligand
Listed here are molecules together with their documented Ki.

>  <Molecule>
CC(C)NCC1CCc2c1ccc(O)c2O (stereo unspecified)

>  <Ki>
4.6 µM

$$$$
>  <Molecule>
NCC1CCCCc2c1ccc(O)c2O (stereo unspecified)

>  <Ki>
27 µM

$$$$
>  <Molecule>
CCN(CC)CC1CCc2c1ccc(O)c2O (stereo unspecified)

>  <Ki>
3.6 µM

$$$$
>  <Molecule>
NCC(O)c1ccc(O)c(O)c1F (stereo unspecified)

>  <Ki>
25 µM

$$$$
>  <Molecule>
CCCN(CCC)CC1CCc2cc(O)c(O)cc21 (stereo unspecified)

>  <Ki>
29 µM

$$$$
>  <Molecule>
CC(C)NCC1CCCc2c1ccc(O)c2O (stereo unspecified)

>  <Ki>
6.6 µM

$$$$
>  <Molecule>
CC(C)NCC1CCc2cc(O)c(O)cc21 (stereo unspecified)

>  <Ki>
11 µM

$$$$
>  <Molecule>
NCC1Cc2cc(O)c(O)cc21 (stereo unspecified)

>  <Ki>
5 µM

$$$$
>  <Molecule>
CNCC1CCc2c1ccc(O)c2O (stereo unspecified)

>  <Ki>
2 µM

$$$$
>  <Molecule>
CN(C)CC1CCCc2cc(O)c(O)cc21 (stereo unspecified)

>  <Ki>
13 µM

$$$$
>  <Molecule>
CN(C)CC1CCCc2c1ccc(O)c2O (stereo unspecified)

>  <Ki>
13 µM

$$$$
>  <Molecule>
NCC1CCc2cc(O)c(O)cc21 (stereo unspecified)

>  <Ki>
26 µM

$$$$
>  <Molecule>
CN(C)CC1CCc2cc(O)c(O)cc21 (stereo unspecified)

>  <Ki>
13 µM

$$$$
>  <Molecule>
CN(C)CC1CCc2c1ccc(O)c2O (stereo unspecified)

>  <Ki>
6.9 µM

$$$$
>  <Molecule>
CNCC1CCCc2cc(O)c(O)cc21 (stereo unspecified)

>  <Ki>
8.7 µM

$$$$
>  <Molecule>
CC(C)NCC1CCCc2cc(O)c(O)cc21 (stereo unspecified)

>  <Ki>
14 µM

$$$$

* * *

Target system: Adrenergic receptor alpha (Rattus norvegicus) (UniProt P15823+P23944+P43140+P22086+P19328+P22909)
Protocol details: Relative affinities for Alpha1 and alpha-2 adrenergic receptors in rat

>  <Compound>
NCC1CCc2c1ccc(O)c2O (configuration not stated)

>  <Ratio>
560

$$$$
>  <Compound>
CC(C)NCC1CCc2c1ccc(O)c2O (configuration not stated)

>  <Ratio>
6.9

$$$$
>  <Compound>
CN(C)CC1CCc2c1ccc(O)c2O (configuration not stated)

>  <Ratio>
270

$$$$
>  <Compound>
NCC1CCCCc2c1ccc(O)c2O (configuration not stated)

>  <Ratio>
30

$$$$
>  <Compound>
CCN(CC)CC1CCc2c1ccc(O)c2O (configuration not stated)

>  <Ratio>
11

$$$$
>  <Compound>
CCCN(CCC)CC1CCc2c1ccc(O)c2O (configuration not stated)

>  <Ratio>
16

$$$$
>  <Compound>
CCNCC1CCc2c1ccc(O)c2O (configuration not stated)

>  <Ratio>
20

$$$$
>  <Compound>
NCC1Cc2c1ccc(O)c2O (configuration not stated)

>  <Ratio>
98

$$$$
>  <Compound>
CN(C)CC1Cc2c1ccc(O)c2O (configuration not stated)

>  <Ratio>
160

$$$$
>  <Compound>
CNCC1CCc2c1ccc(O)c2O (configuration not stated)

>  <Ratio>
290

$$$$
>  <Compound>
CCN(CC)CC1CCCc2c1ccc(O)c2O (configuration not stated)

>  <Ratio>
13

$$$$
>  <Compound>
CCNCC1CCCc2c1ccc(O)c2O (configuration not stated)

>  <Ratio>
40

$$$$

* * *

Target system: Adrenergic receptor alpha-1 (Rattus norvegicus, UniProt P15823+P23944+P43140)
Protocol details: Binding affinity against alpha-1 adrenergic receptor in rat using [3H]prazosin as radioligand
Classes based on Ki: bin 1 = under 3 µM, bin 2 = from 3 µM up to 10 µM, bin 3 = 10 µM and over

>  <Compound>
NCC1CCCc2cc(O)c(O)cc21 (stereo not given)

>  <Target system>
Adrenergic receptor alpha-1 (Rattus norvegicus, UniProt P15823+P23944+P43140)

>  <Qualitative label>
bin 3

$$$$
>  <Compound>
CNCC1CCCc2c1ccc(O)c2O (stereo not given)

>  <Target system>
Adrenergic receptor alpha-1 (Rattus norvegicus, UniProt P15823+P23944+P43140)

>  <Qualitative label>
bin 2

$$$$
>  <Compound>
CCCN(CCC)CC1CCCc2cc(O)c(O)cc21 (stereo not given)

>  <Target system>
Adrenergic receptor alpha-1 (Rattus norvegicus, UniProt P15823+P23944+P43140)

>  <Qualitative label>
bin 3

$$$$
>  <Compound>
NCC(O)c1cc(O)c(O)cc1F (stereo not given)

>  <Target system>
Adrenergic receptor alpha-1 (Rattus norvegicus, UniProt P15823+P23944+P43140)

>  <Qualitative label>
bin 1

$$$$
>  <Compound>
CCCN(CCC)CC1CCc2c1ccc(O)c2O (stereo not given)

>  <Target system>
Adrenergic receptor alpha-1 (Rattus norvegicus, UniProt P15823+P23944+P43140)

>  <Qualitative label>
bin 2

$$$$
>  <Compound>
CCCN(CCC)CC1CCCc2c1ccc(O)c2O (stereo not given)

>  <Target system>
Adrenergic receptor alpha-1 (Rattus norvegicus, UniProt P15823+P23944+P43140)

>  <Qualitative label>
bin 2

$$$$
>  <Compound>
NCC1CCc2c1ccc(O)c2O (stereo not given)

>  <Target system>
Adrenergic receptor alpha-1 (Rattus norvegicus, UniProt P15823+P23944+P43140)

>  <Qualitative label>
bin 2

$$$$
>  <Compound>
CN(C)CC1Cc2c1ccc(O)c2O (stereo not given)

>  <Target system>
Adrenergic receptor alpha-1 (Rattus norvegicus, UniProt P15823+P23944+P43140)

>  <Qualitative label>
bin 2

$$$$
>  <Compound>
CCNCC1CCc2c1ccc(O)c2O (stereo not given)

>  <Target system>
Adrenergic receptor alpha-1 (Rattus norvegicus, UniProt P15823+P23944+P43140)

>  <Qualitative label>
bin 1

$$$$
>  <Compound>
NCC1CCCCc2cc(O)c(O)cc21 (stereo not given)

>  <Target system>
Adrenergic receptor alpha-1 (Rattus norvegicus, UniProt P15823+P23944+P43140)

>  <Qualitative label>
bin 3

$$$$
>  <Compound>
NCC1Cc2c1ccc(O)c2O (stereo not given)

>  <Target system>
Adrenergic receptor alpha-1 (Rattus norvegicus, UniProt P15823+P23944+P43140)

>  <Qualitative label>
bin 3

$$$$
>  <Compound>
CCNCC1CCCc2c1ccc(O)c2O (stereo not given)

>  <Target system>
Adrenergic receptor alpha-1 (Rattus norvegicus, UniProt P15823+P23944+P43140)

>  <Qualitative label>
bin 2

$$$$
>  <Compound>
Brc1c(NC2=NCCN2)ccc2nccnc12 [BRIMONIDINE]

>  <Target system>
Adrenergic receptor alpha-1 (Rattus norvegicus, UniProt P15823+P23944+P43140)

>  <Qualitative label>
bin 1

$$$$
>  <Compound>
CCN(CC)CC1CCCc2c1ccc(O)c2O (stereo not given)

>  <Target system>
Adrenergic receptor alpha-1 (Rattus norvegicus, UniProt P15823+P23944+P43140)

>  <Qualitative label>
bin 2

$$$$
>  <Compound>
NCC1CCCc2c1ccc(O)c2O (stereo not given)

>  <Target system>
Adrenergic receptor alpha-1 (Rattus norvegicus, UniProt P15823+P23944+P43140)

>  <Qualitative label>
bin 3

$$$$
